Entry source: PubChem BioAssay

target: Luciferin 4-monooxygenase (Photinus pyralis); assay: inhibition of purified Photinus pyralis luciferase – biochemical, luminescence, purified enzyme, 2006 set, primary screen (AID 1141); details: purified firefly luciferase, SteadyGlo luminescence, 30 min; higher = more signal, called active from +8 up or from −8 down;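 also: cell-free assay with purified firefly luciferase at 100 ng per well in PBS; test concentration not given here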
measured attribute: z-score

> print(dat)
                           molecular.string                             system.tested  readout.number
1  COCCCNC(=O)[C@@]1(Cc2ccccc2N=[N+]=[N-])N=C(c2ccc(OCCCO)cc2)O[C@H]1c1ccccc1CN=[N+]=[N-]  Luciferin 4-monooxygenase (Photinus pyralis)           -3.93
2  CCCCC(=C=CC[C@H](O)c1ccccc1OCCO)C[C@H](O)c1ccccn1  Luciferin 4-monooxygenase (Photinus pyralis)          -0.109
3  COc1ccc([Si](C)(C)[C@@H]2[C@@H](CCO)O[C@]3(C(=O)N(Cc4ccc(N5C(=O)c6ccccc6Oc6ccccc65)cc4)c4ccccc43)[C@H]2C)cc1  Luciferin 4-monooxygenase (Photinus pyralis)           0.173
4  CC(C)C[C@@H]1NC(=O)[C@@H]2C[C@H](C(=O)NCc3ccc(F)cc3)[C@H](c3ccc(O)cc3)N2C1=O  Luciferin 4-monooxygenase (Photinus pyralis)         -0.0763

====

assay: compound effects on differentiated 3T3-L1 adipocyte viability – cell-based, 3T3-L1 adipocytes, calcein-AM fluorescence, 48 h, basal, profiling panel (AID 1163); settings: 3T3-L1 adipocytes viability, higher = more signal; also: test concentration not given here
Readings of z-score for the listed compounds
measured attribute: z-score

molecular string	readout number
COc1cccc(C[C@H]2C[C@@H](CO[Si](C(C)C)(C(C)C)C(C)C)N3C(=O)[C@]4(C(C)=O)O[C@]23[C@H]2C(=O)N(C)C(=O)[C@H]24)c1	-0.206
O=C1N(Cc2ccccc2)c2ccccc2[C@H]2OC(c3ccc(OCCCO)cc3)=N[C@@]12CCS(=O)(=O)c1ccccc1	0.899
COCCOC(=O)N1C(=O)[C@@]2(c3cc(C#CCCO)ccc31)[C@H](C(=O)NC[C@H](O)c1ccccc1)[C@H]1C(=O)O[C@H](c3ccccc3)[C@H](c3ccccc3)N1[C@@H]2c1ccccc1OCCO	0.904

====

assay: Pseudomonas biofilm growth suppression – PAO1 strain, BacTiter-Glo luminescence, LB-PBS, primary screen (AID 1144); conditions: P. aeruginosa PAO1 biofilm, 12 h, higher = more signal
Entries and their measured z-score follow.

compound	z-score
C=C(/C(=C/C[C@@H](OC(C)=O)c1ccccc1OCCO)c1cnc2ccccc2c1)C(C)C	0.362
COC(=O)c1ccc(OC)c(/C=C\CC(CCc2ccccc2)OC(=O)c2ccncc2)c1 (centres undefined)	1.02
C=CCOC(=O)[C@@H]1[C@H]2C(=O)O[C@H](c3ccccc3)[C@H](c3ccccc3)N2[C@H](c2ccc(OCCOC(=O)[C@@H]3C[C@@H]4C(=O)N5CCC[C@H]5C(=O)N4[C@@H]3c3cccc(OCCO)c3)cc2)[C@@]12C(=O)Nc1ccc(I)cc12	-0.49
Cc1ccc(F)cc1S(=O)(=O)N[C@@H]1CCN(C(=O)c2ccc(OC(C)C)cc2)C1	0.595

====

z-score values by entry
test: basal CRE-LacZ reporter activity in PC12 – cell-based, unstimulated, primary screen (AID 1145); conditions: no forskolin, luminescence, 4.5 h, higher = more signal, called active from +8 up or from −8 down

compound	z-score
O=C1O[C@H](c2ccccc2)[C@H](c2ccccc2)N2[C@H]1[C@@H](C(=O)N1CCN(c3ncccn3)CC1)[C@]1(C(=O)Nc3ccc(C#CCCO)cc31)[C@H]2c1ccccc1OCCO	0.765
COc1ccc([Si](C)(C)[C@@H]2[C@@H](CCO)O[C@]3(C(=O)N(Cc4ccc(N5C(=O)c6ccccc6Oc6ccccc65)cc4)c4ccccc43)[C@H]2C)cc1	2.5
CC(C)N1CC=CC23O[C@@H]4C=CCOC(=O)[C@@H]4[C@H]2C(=O)N(CCCCCCO)[C@@H]3C1=O (some centres undefined)	-0.627
COc1cccc(C[C@H]2C[C@@H](CO[Si](C(C)C)(C(C)C)C(C)C)N3C(=O)[C@]4(C(C)=O)O[C@]23[C@H]2C(=O)N(C)C(=O)[C@H]24)c1	1.62
O=C1C2C=CC(C(O)c3cccc4ccccc34)N(Nc3ccccc3)C2C(=O)N1c1ccccc1 (centres undefined)	0.429
COc1ccc([Si](C)(C)[C@@H]2[C@@H](CC(=O)N(CCO)Cc3ccccc3)O[C@]3(C(=O)N(Cc4ccc(N5CCOC5=O)cc4)c4ccccc43)[C@H]2C)cc1	7.59
C=CCOc1ccc([C@@H]2CC=C(C(=O)OCC)[C@H](c3cccc(Br)c3)N2S(=O)(=O)c2ccc(C)cc2)cc1	-0.424
COC(=O)C(CC#Cc1ccc2c(c1)[C@]1(C(=O)N2)[C@H](C(=O)N2CCc3cc(OC)c(OC)cc3C2)[C@H]2C(=O)O[C@H](c3ccccc3)[C@H](c3ccccc3)N2[C@@H]1c1ccc(O)cc1)C(=O)OC	0.0384
CCN(CC)c1ccc(N2CC=CC34O[C@@H]5/C=C\CCCOC(=O)C5[C@H]3C(=O)N(CCCCCCO)[C@@H]4C2=O)cc1 (some centres undefined)	0.475
COc1ccccc1CN1C(=O)c2ccccc2[C@](Cc2ccccc2I)(C(=O)NCCN2CCOCC2)[C@@H]1c1ccc(CO)cc1	0.648
CCCCC(=C=CC[C@H](O)c1cccc(OCCO)c1)C[C@H](O)COCc1ccccc1	3.54
CN(C)C(=O)[C@]1(Cc2ccccc2N=[N+]=[N-])N=C(c2ccc(OCCCO)cc2)O[C@@H]1c1ccccc1CN=[N+]=[N-]	1.57
CO[C@H]1O[C@H](CO)[C@@H](OC(=O)c2ccc(Br)cc2)[C@@H]2OC(=O)[C@H](Cc3cccc(Br)c3)C/C=C/C[C@@H](Cc3cccc(Br)c3)C(=O)O[C@@H]12	0.212
O=C1C2C=CC(C(O)c3ccc(Br)cc3)N(Nc3ccccc3)C2C(=O)N1c1ccccc1 (centres undefined)	0.24
